Values compiled from PubChem BioAssay (NCI).

Test system: KM12 colon
Assay: NCI tumour cell line growth inhibition, 48 h; in the data active = GI50 below about 0.43 µM; inactive = the rest
Returns: one label drawn from active, inactive

Recorded results for 5 compounds are shown here.
[[record]]
compound = "Fc1cccc(COc2ccc(Nc3ncnc4onc(-c5ccccc5)c34)cc2)c1"
labelclass = "active"

[[record]]
compound = "C(=N\\Nc1ncc(-c2cc3cc4c(cc3o2)OCO4)s1)/c1ccco1"
labelclass = "inactive"

[[record]]
compound = "CCC[CH2][Sn](=[O])[CH2]CCC"
labelclass = "inactive"

[[record]]
compound = "CC1SC(c2ccccc2Cl)N(NC(=O)C(O)c2ccccc2)C1=O (stereo not given)"
labelclass = "inactive"

[[record]]
compound = "Cc1cc2c(F)c(Oc3ncnc(Nc4ccc(N5C[C@@H](C)N[C@@H](C)C5)cc4)c3C#N)cc(F)c2[nH]1"
labelclass = "inactive"


Exam item: Which outcome was assigned to COc1ccccc1C#Cc1ccccc1C#Cc1ccc(OCCCCCCOc2ccccc2C#Cc2ccccc2C#Cc2ccccc2OC)cc1 in this test?
Marked response: inactive

Exam item: Would you mind doing CCSC[C@@H]1C[C@](O)(c2ccc(Cl)cc2)[C@@H](c2ccc(Cl)cc2)O1 as well?
Marked response: inactive
